# Subject Of Test: Recombinant KLK2 (Homo sapiens, UniProt P20151)
# Construct: made in house; host or cells: baculovirus-insect cell line system
# Sequence (P20151 25-261): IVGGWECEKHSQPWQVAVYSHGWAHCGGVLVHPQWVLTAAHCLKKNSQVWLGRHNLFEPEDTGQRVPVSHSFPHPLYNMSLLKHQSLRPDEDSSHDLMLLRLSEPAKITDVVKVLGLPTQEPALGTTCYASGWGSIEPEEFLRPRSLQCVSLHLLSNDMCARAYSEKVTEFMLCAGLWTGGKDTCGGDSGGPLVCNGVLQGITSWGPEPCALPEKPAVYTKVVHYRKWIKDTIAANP
# Assay Remarks: Hydrolysis of FRET peptides by recombinant KLK2 (kinetic parameters)
# Type: biochemical
# Condition Label: pH 8.0, 20 mM Tris–HCl, 1 M sodium citrate, 37 °C, KLK2 1.6 nM; three enzymatic reactions, standard errors 5% or less
Non-standard residues stand in square brackets, D forms with d. No end group written: not given here. *: point of attachment. EDDnp = O=[N+]([O-])c1ccc(NCCN*)c([N+](=O)[O-])c1; 2Abz = Nc1ccccc1C(=O)O
# Km annotations
Numbers only here, please. The scale is µM.

The following substances have reported results that may help.
Substance | Km, µM
Abz-KLRSXKQ-EDDnp, X = H: FRET peptide, S2’ series, X = H (N-terminal Abz, C-terminal EDDnp; X = H) | 5.9
Abz-XLRSSKQ-EDDnp, X = V: FRET peptide, S3 series, X = V [Abz-XLRSSKQ-EDDnp, X = V] (Abz-VLRSSKQ-EDDnp) | 4.7
Abz-KLRXSKQ-EDDnp, X = R: FRET peptide, S1’ series, X = R ([2Abz]KLRRSKQ-EDDnp) | 5.4
Abz-XLRSSKQ-EDDnp, X = N: FRET peptide, S3 series, X = N (Abz-NLRSSKQ-EDDnp) | 7.8
Abz-KLRSSKQ-EDDnp [parent FRET peptide, cleaved at the R–S peptide bond by KLK2] | 6.5
Abz-XLRSSKQ-EDDnp, X = Q: FRET peptide, S3 series, X = Q (Abz-QLRSSKQ-EDDnp) | 5.9

Here is another substance to look at.
Item: Abz-KXRSSKQ-EDDnp, X = R: FRET peptide, S2 series, X = R (Abz-KRRSSKQ-EDDnp) | System: Recombinant KLK2 (Homo sapiens, UniProt P20151) | Km: 5.2
